Reference for the values: patent US20190106487A1

Biological target: T1, human IL-1RAcP on 293T/17-FR cells (human, UniProt Q9NPH3 21-570)
T1 sequence (looked up): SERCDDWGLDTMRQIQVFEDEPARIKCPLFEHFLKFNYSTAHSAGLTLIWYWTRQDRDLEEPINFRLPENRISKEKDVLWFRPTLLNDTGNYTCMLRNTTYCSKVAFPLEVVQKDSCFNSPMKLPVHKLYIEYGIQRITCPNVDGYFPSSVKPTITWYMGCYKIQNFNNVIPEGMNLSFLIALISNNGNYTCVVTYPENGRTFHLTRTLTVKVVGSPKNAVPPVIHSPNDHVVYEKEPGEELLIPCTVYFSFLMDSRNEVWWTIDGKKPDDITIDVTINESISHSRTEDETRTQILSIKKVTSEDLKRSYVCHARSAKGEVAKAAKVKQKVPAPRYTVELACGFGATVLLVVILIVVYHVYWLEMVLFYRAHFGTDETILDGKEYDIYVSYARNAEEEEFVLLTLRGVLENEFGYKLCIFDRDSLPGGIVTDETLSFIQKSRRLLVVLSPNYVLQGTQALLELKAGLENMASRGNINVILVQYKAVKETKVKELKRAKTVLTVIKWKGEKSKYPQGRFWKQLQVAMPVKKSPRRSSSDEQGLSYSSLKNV
Assay: cell-based or functional assay
Please note: Fulfilled applies when functional reporter gene assay (% inhibition), 0.04 µg/mL mAb is 20% or greater, and Not fulfilled applies otherwise.

- binder: "P013.S.02.B.B03 (antibody, V domains shown, rabbit monoclonal antibody; also called P013.A.00045.F11) VH: QEQLEESGGDLVKPEGSLTLTCTASGFSFSSNYWICWVRQAPGKGLELIACIYTSTGNTWYASWAKGRFTISKTSSTTVTLQMTSLTVADTATYFCARDLLVVTSFNLWGQGTLVTVSS VL: ALVMTQTPSPVSAAVGGTVTINCQASEDIYSNLAWFQQKPGQPPKLLIYGASTLASGVPSRFSGSGSGTEFTLTISGVQSDDAATYYCLGVCTDISTDDLYNAFGGGTELVVK"
  class-label: "Not fulfilled"
- binder: "P013.S.02.B.C05 (antibody, V domains shown, rabbit monoclonal antibody; also called P013.A.00085.F10) VH: QSLEESGGRLVTPGTPLTLSCTASGFSLSTYYMSWVRQAPGKGLEWIGYMHVGGFPVYASWAKGRFTISKTSTTVDLKITSPTIEDTATYFCARDFGPPNWTLDLWGQGTLVTVSS VL: DVVMTQTPASVEAAVGGTVTIKCQASQSISSYCSWYQQKPGQPPKLLIYRASTLESGVPSRFKGSGSGTEFTLTISDLESADAATYYCQSSYYDLLGNGFGGGTEVVVK"
  class-label: "Not fulfilled"
- binder: "P013.S.01.B.C02 (antibody, V domains shown, rabbit monoclonal antibody; also called P013.A.00014.C10) VH: QSLEESGGDLVKPGASLTLTCTASGFSFSSSHYMCWVRQAPGKGLEWIACIYAGSSGNTYYANWAKGRFTISKTSSTTVTLQMTSLTAADTATYFCARVDASSSGSWDLWGPGTLVTVSS VL: AIEMTQTPFSVSAAVGGTVTINCQASESIYSNLAWYQQILGQPPKLLIYAASLLASGVPSRFKGSGSGTEYTLTISGVQSADAATYYCQSASYSTGPDWTFGGGTEVVVE"
  class-label: "Not fulfilled"
- binder: "P013.S.01.B.D02 (antibody, V domains shown, rabbit monoclonal antibody; also called P013.A.00022.E06) VH: LEQSGGGAEGGLVKPGGSLELCCKASGFSLTTNYWICWVRQAPGKGLEWIGCIYANSVGSTYYASWVNGRFTLSRDIDQSTGCLQLNSLTAADTAMYYCARVDPGYSFDAFDPWGPGTLVTVSS VL: ALVMTQTPSPVSAAVGGTVTINCQASEDIYSNLAWFQQKPGQPPKLLIYRASTLASGVPSRFSGSGSGTEFTLTISALQSDDAATYYCLGVRTYFNTLNNSFGGGTEVVVK"
  class-label: "Fulfilled"

Query: Decide: is the reported value of functional reporter gene assay (% inhibition), 0.04 µg/mL mAb for P013.S.02.B.G03 (antibody, V domains shown, rabbit monoclonal antibody; also called P013.A.00014.D07) VH: QSVEESGGRLVTPGTPLTLTCTVSGFSLSSYGMIWVRQAPGEGLEWIGFIGRGGATWYASWVKGRFTISKTSTTVDLKITSPTASDTATYFCARDGDSSDYYAFNLWGQGTLVTVSS VL: DVVMTQTPASVSEPVGGTVTIKCQASQNIGSNLAWYQQRSGQPPKLLIYGASTLASGVPSRFSGSGSGTEFTLTISGVQSADAATYFCQCSGYDITGVFPFGGGSEVVVK equal to or greater than 20%?
Reply: Not fulfilled

Query: Decide: is the reported value of functional reporter gene assay (% inhibition), 0.04 µg/mL mAb for P013.S.02.B.D02 (antibody, V domains shown, rabbit monoclonal antibody; also called P013.A.00086.F05) VH: QSLEESGGDLVKPGASLKLSCTASGVSFSSAYWMCWVRQAPGKGLEWIACIYAGSSGSTYYASWAKGRFTISKTSSTTVTLQMTSLTAADTATYFCARHAAWFELDLWGPGTLVTVSS VL: ALVMTQTPSPVSAAVGGTVTINCQASQNIASAYLSWYQQKPGQPPKLLIYAASTLTDGVPSRFKGSGSVTEFTLTISGVQSDDAATYYCAGYKSYTDDEFAFGGGTEVVVK equal to or greater than 20%?
Reply: Not fulfilled
